Reference source for all entries: ChEMBL document CHEMBL3988442

# Test system: Wolbachia pipientis
# method_summary: Anti-Wolbachia Cell-Based Screen
# Type: functional
# Parameters: scale not given: in the data most compounds retested in dose-response had high values
# conditions_used: 5 µM
Hit rate of the full screen: of about 48,000 compounds, about 13,000 (27%) showed an effect of 50% or more. Some of the results follow.
recorded_metric: Percent Effect (%)
Give just the numeric value; % need not be written.

Solved cases (4 shown):
COc1ccc2[nH]cc(C3CCN(CCC(N)=O)CC3)c2c1 : -13.9
OC1(CNC2CCN(Cc3ccncc3)CC2)CCc2ccccc21 (stereo unspecified) : 9.315
COc1ccc2[nH]cc(-c3ccnc(N4CCC(C)CC4)n3)c2c1 : 108.4
COc1cc(-c2cc(NC3CCCC3)nc3[nH]ccc23)nc(N)n1 : -4.005

Given CCc1noc(CS(=O)(=O)Cc2nc(Cc3ccccc3)no2)n1 , state its recorded Percent Effect. 6.103

Here is the next compound: CCC(C)(CC(=O)OC)NC(=O)c1ccc(C(C)=O)cc1 (stereo unspecified) 5.798

Query Cc1cccc2c1nc1n2[C@@H](CNC(=O)c2ccccn2)COC1 next -9.692

Next: Cc1nn(-c2ccccc2)c2nc(C(C)(C)CN3CCN(C)CC3)[nH]c12 102.6

Thanks! And COc1ccc2[nH]cc(-c3ccnc(NC4CCCC4)n3)c2c1 ? 98.2

Consider next the compound CC(C)NC(=O)C(C(C)C)n1cnc2cc(F)c(F)cc21 (stereo unspecified) in the same way. -2.583

Can you check CCN(CC)C(=O)Cn1cc(C(=O)NCCc2scnc2C)nn1 next? 5.922
